Assignment: determine reported Population Mitotic Cells (%) for the given compounds.
Tested on: HEK-293T
PROTOCOL DESCRIPTION: Multiplex assay against HEK293T
Format: toxicity, cell-based
ASSAY SETUP: human, 48 h, 10 µM, compound concentration 10 uM, replicate 1
Answers are plain numbers, in %.

Nc1nc2c(c(N3CCNCC3)n1)CCC1=C2[C@@H]2CCCC[C@@H]2O1 : 33
CCC(=O)O[C@]1(C(=O)SCF)[C@H](C)C[C@H]2[C@@H]3C[C@H](F)C4=CC(=O)C=C[C@]4(C)[C@@]3(F)[C@@H](O)C[C@@]21C [FLUTICASONE PROPIONATE] : 32
C1=N/C2=N/c3ccc(OCCN4CCCC4)c(c3)COC/C=C\COCc3cccc(c3)C(=C1)N2 : 12
CCCn1c(=O)c2[nH]c(C34CC5CC(CC3C5)C4)nc2n(CCC)c1=O : 35
Cc1cc2c(cc1N1C(=O)c3cccc4c(CCCO)ccc(c34)C1=O)n(C)c(=O)n2C : 25
CCn1c(-c2nonc2N)nc2cnc(Oc3cccc(NC(=O)c4ccc(OCCN5CCOCC5)cc4)c3)cc21 [GSK-269962A] : 19

Below are 2 compounds. Give each one its Population Mitotic Cells (%).
1. CC(=O)c1cc(-c2cc(C(=O)NC3CC3)ccc2C)c2ncccn12
2. COc1cc(N2CCC(N(C)C)CC2)ccc1Nc1ncc(Cl)c(Nc2ccccc2P(C)(C)=O)n1

Reply:
1: 42; 2: 22

----------
System: HEK-293T
PROTOCOL DESCRIPTION: Multiplex assay against HEK293T
Type: toxicity, cell-based
ASSAY SETUP: human, 24 h, 10 µM, compound concentration 10 uM, replicate 1
MEASUREMENT LABEL: Population Fragmented Nuclei (%)
Give bare numbers, in %.

Solved cases (5 shown):
Nc1ccc(C(=O)Nc2cccc(-c3nc(N4CCOCC4)c4oc5ncccc5c4n3)c2)cn1 : 45
Cl.Cl.Nc1ncnc2c1c(-c1cccc(OCc3ccccc3)c1)cn2[C@H]1C[C@@H](CN2CCC2)C1 : 17
CNc1oc(-c2cccc3ccccc23)nc1C#N : 83
Nc1nc2c(c(N3CCNCC3)n1)CCC1=C2[C@@H]2CCCC[C@@H]2O1 : 8
Cc1cn(-c2cc(NC(=O)c3ccc4c(c3)CN(c3cncnc3)C[C@@H]4C)cc(C(F)(F)F)c2)cn1 : 16

For the 4 compounds below, give their Population Fragmented Nuclei (%) values.
1. COc1ccc(NS(=O)(=O)c2sc3ccc(Cl)cc3c2C)cc1N1CCNCC1.Cl
2. CC(C)(C)c1cnc(CSc2cnc(NC(=O)C3CCNCC3)s2)o1
3. O=C(O)c1ccc2cc(-c3ccc(O)c(C45CC6CC(CC(C6)C4)C5)c3)ccc2c1
4. COc1cc2c(NC3CCN(C(C)C)CC3)nc(N3CCC(F)(F)CC3)nc2cc1OCCCN1CCCC1

Reply:
1: 10; 2: 16; 3: 16; 4: 11

----------
System: U2OS
PROTOCOL DESCRIPTION: Multiplex assay against U2OS
Type: toxicity, cell-based
ASSAY SETUP: human, 48 h, 1 µM, compound concentration 1 uM, replicate 2
MEASUREMENT LABEL: Population Apoptotic (%)
Param answer (str): number followed by unit.

Answered examples (4):
CC(=O)c1cc(-c2cc(C(=O)NC3CC3)ccc2C)c2ncccn12 : 16%
COc1ccc(NS(=O)(=O)c2sc3ccc(Cl)cc3c2C)cc1N1CCNCC1.Cl : 22%
CC(C)N1CCC(C)(C)c2cc(C#Cc3ccc(C(=O)O)cc3)ccc21 : 33%
Nc1ccc(C(=O)Nc2cccc(-c3nc(N4CCOCC4)c4oc5ncccc5c4n3)c2)cn1 : 25%

Here is the next item to consider.
Query: Please give the measured Population Apoptotic (%) for this compound: Cc1cc2c(cc1N1C(=O)c3cccc4c(CCCO)ccc(c34)C1=O)n(C)c(=O)n2C
Reply: 66%

----------
Tested on: U2OS
PROTOCOL DESCRIPTION: Multiplex assay against U2OS
Type: toxicity, cell-based
ASSAY SETUP: human, 12 h, 10 µM, compound concentration 10 uM, replicate 2
Each record's class is read off its Population Membrane Permeable-Phenotype (%) using these ranges: lo (below 10%), med (10% to below 20%), hi (20% or more)

Worked examples, 5 compounds total:
Nc1nc2c(c(N3CCNCC3)n1)CCC1=C2[C@@H]2CCCC[C@@H]2O1 : hi
CCCn1c(=O)c2[nH]c(C34CC5CC(CC3C5)C4)nc2n(CCC)c1=O [ROLOFYLLINE] : hi
CC(C)N1CCC(C)(C)c2cc(C#Cc3ccc(C(=O)O)cc3)ccc21 : lo
CNc1oc(-c2cccc3ccccc23)nc1C#N : lo
CCc1cc2c(cc1CC)CC(NC[C@H](O)c1ccc(O)c3[nH]c(=O)ccc13)C2 [INDACATEROL] : hi

Query: # bin label for Cl.Cl.NC1(c2ccc(-c3nc4ccn5c(=O)[nH]nc5c4cc3-c3ccccc3)cc2)CCC1
Reply: med

Query: Place this compound in its band: c1ccc2oc(-c3csc(C4CCN(Cc5nc6ncccc6[nH]5)CC4)n3)cc2c1
Reply: med

Query: Entry CN(C)CCOc1ccc(-c2nc(-c3ccncc3)c(-c3ccc4c(c3)CC/C4=N\O)[nH]2)cc1 [SB590885] belongs to which category?
Reply: med

----------
Test system: Fibroblast
PROTOCOL DESCRIPTION: Multiplex assay against human fibroblast
Assay type: toxicity, cell-based
ASSAY SETUP: 48 h, 1 µM, compound concentration 1 uM, replicate 1
MEASUREMENT LABEL: Population Fragmented Nuclei (%)
# number then unit; no other words

COc1ccc(NS(=O)(=O)c2sc3ccc(Cl)cc3c2C)cc1N1CCNCC1.Cl : 38%

For each listed entry, give its Population Fragmented Nuclei (%).
1. CCc1cc2c(cc1CC)CC(NC[C@H](O)c1ccc(O)c3[nH]c(=O)ccc13)C2 [INDACATEROL]
2. Nc1ccc(C(=O)Nc2cccc(-c3nc(N4CCOCC4)c4oc5ncccc5c4n3)c2)cn1
3. Cc1nc(Cc2cccc(C(F)(F)F)c2)sc1-c1ccc(C(N)=O)nc1 [TP-024n]
4. Nc1nc2c(c(N3CCNCC3)n1)CCC1=C2[C@@H]2CCCC[C@@H]2O1

Reply:
1. 29%
2. 47%
3. 21%
4. 44%

Query: Please look up its Population Fragmented Nuclei (%): CCC(=O)O[C@]1(C(=O)SCF)[C@H](C)C[C@H]2[C@@H]3C[C@H](F)C4=CC(=O)C=C[C@]4(C)[C@@]3(F)[C@@H](O)C[C@@]21C [FLUTICASONE PROPIONATE]
Reply: 41%

----------
Provide the recorded Growth Rate for the entries that follow.
System: U2OS
PROTOCOL DESCRIPTION: Incucyte cell viability with U2OS; further: filed as whole numbers so only -1 and 0 and 1 occur
Assay type: toxicity, cell-based
ASSAY SETUP: human, 18 h, 10 µM, compound concentration 10 uM, replicate number 1, timepoint 18 hours
Numbers only.

CCCCc1nc(Cl)c(CO)n1Cc1ccc(-c2ccccc2-c2nn[nH]n2)cc1 [LOSARTAN] : 0

Provide reported Growth Rate for each item, in the same order as listed.
1. Cc1cccc(NC(=O)N[C@@H]2N=C(c3ccccc3)c3ccccc3N(C)C2=O)c1 [L-365260]
2. CCCOc1ccc([C@@H]2[C@@H](C(=O)O)[C@H](c3ccc4c(c3)OCO4)CN2CC(=O)Nc2c(CC)cccc2CC)cc1 [A-1806262]
3. CC1(C)CNc2cc(NC(=O)c3cccnc3NCc3ccncc3)ccc21.O=P(O)(O)O.O=P(O)(O)O [MOTESANIB DIPHOSPHATE]
4. CNc1cc2[nH]c(=O)n(-c3ccc(NC(=O)NS(=O)(=O)c4ccc(Cl)s4)cc3)c(=O)c2cc1F [ELINOGREL]
5. CO[C@@H]1COCC[C@@H]1N[C@@H]1CC[C@@](C(=O)N2CCc3ncc(C(F)(F)F)cc3C2)(C(C)C)C1 [MK-0812]
6. O=C(O)COc1cccc(CN(Cc2ccc(-n3cccn3)cc2)S(=O)(=O)c2cccnc2)c1
7. N#Cc1cnc(Nc2cc(NC[C@H]3CNCCO3)c(C(F)(F)F)cn2)cn1 [SRA-737]

Reply:
[0, 1, 1, 0, 1, 1, 0]

----------
System: Fibroblast
PROTOCOL DESCRIPTION: Multiplex assay against human fibroblast
Format: toxicity, cell-based
ASSAY SETUP: 48 h, 10 µM, compound concentration 10 uM, replicate 1
MEASUREMENT LABEL: Total Cell Count
Answers are plain numbers.

// solved cases for Total Cell Count follow
CC(C)Oc1ccc(C(=O)N[C@H](CNC(=O)CN(C)C)Cc2ccc(-c3cn4cccc([C@H](C)O)c4n3)cc2)cc1Cl [GSK-923295A] : 96
Cl.Cl.Nc1ncnc2c1c(-c1cccc(OCc3ccccc3)c1)cn2[C@H]1C[C@@H](CN2CCC2)C1 : 139
Nc1nc2c(c(N3CCNCC3)n1)CCC1=C2[C@@H]2CCCC[C@@H]2O1 : 244

// next item, Total Cell Count requested
Query: Entry under review: C1=N/C2=N/c3ccc(OCCN4CCCC4)c(c3)COC/C=C\COCc3cccc(c3)C(=C1)N2 . Reported Total Cell Count?
Reply: 82
